test system: Pseudomonas 4 (Pseudomonas peli); assay: relative growth (AUC of 72 h growth curve relative to DMSO control, dAUC) (ratio); higher = more growth (less inhibition), active = hit call of the paper; details: 20 µM
OUTCOME MEASURE: relative growth
Give bare numbers.

Record excerpt, results attached:
{"COMPOUND": "O=C(Nc1ccccc1-c1ccc(Cl)cc1)c1cccnc1Cl", "TEST RESULT": 0.986}
{"COMPOUND": "CC[C@H](C)C1O[C@]2(C=C[C@@H]1C)C[C@@H]1C[C@@H](C/C=C(\\C)[C@@H](O[C@H]3C[C@H](OC)[C@@H](O[C@H]4C[C@H](OC)[C@H](NC)[C@H](C)O4)[C@H](C)O3)[C@@H](C)/C=C/C=C3\\CO[C@@H]4[C@H](O)C(C)=C[C@@H](C(=O)O1)[C@]34O)O2 (some centres not stated)", "TEST RESULT": 0.98}
{"COMPOUND": "COc1cccc(C(=O)NN(C(=O)c2cc(C)cc(C)c2)C(C)(C)C)c1C", "TEST RESULT": 0.987}

Need relative growth for each of these compounds.
1. COc1ncc(F)c2nc(S(=O)(=O)Nc3c(F)cccc3F)nn12
2. CCSC(C)CC1CC(=O)C(/C(CC)=N/OC/C=C/Cl)=C(O)C1 (mixture of isomers)
3. CCC(C)c1ccccc1OC(=O)NC (configuration not stated)

[0.989, 1.01, 1.01]

Need relative growth for each of these compounds.
1. CN/C(=N\[N+](=O)[O-])NCc1cnc(Cl)s1
2. CCNc1nc(Cl)nc(NC(C)C)n1
3. CC(C)(C)c1ccc(CSc2cnn(C(C)(C)C)c(=O)c2Cl)cc1

1. 0.974
2. 0.956
3. 1.02

Need relative growth for each of these compounds.
1. CCOP(=S)(OCC)Oc1nc(Cl)c(Cl)cc1Cl
2. CCc1nn(C)c(C(=O)NCc2ccc(Oc3ccc(C)cc3)cc2)c1Cl
3. CCOCn1c(-c2ccc(Cl)cc2)c(C#N)c(Br)c1C(F)(F)F
4. CCOP(=S)(OCC)Oc1cc(C)nc(C(C)C)n1
5. CCc1cc(C)cc(CC)c1-c1c(OC(=O)C(C)(C)C)n2n(c1=O)CCOCC2
6. Clc1ccc(C(c2ccc(Cl)cc2)C(Cl)(Cl)Cl)cc1
7. Nc1c([N+](=O)[O-])ccc(Oc2ccccc2)c1Cl

1: 0.991; 2: 0.987; 3: 1.02; 4: 0.919; 5: 0.953; 6: 0.985; 7: 0.949

For this compound ( OC(Cc1ccccc1Cl)(Cn1nc[nH]c1=S)C1(Cl)CC1 (configuration not stated) ), measured relative growth is 1

----------
tested on: Community 4; assay: relative growth (AUC of 72 h growth curve relative to DMSO control, dAUC) (ratio); higher = more growth (less inhibition), active = hit call of the paper; conditions: 20 µM
OUTCOME MEASURE: relative growth
Numbers only.

{"MOLECULE": "C/C(=N\\C#N)N(C)Cc1ccc(Cl)nc1", "TEST RESULT": 1}

Need relative growth for each of these molecules.
1. CO/N=C(/C(=O)OC)c1ccccc1CO/N=C(\C)c1cccc(C(F)(F)F)c1
2. CN/C(=N/CC1CCOC1)N[N+](=O)[O-] (stereo not drawn)

[0.822, 1.09]

Need relative growth for each of these molecules.
1. Cc1cccc2sc3nncn3c12
2. CCNc1nc(Cl)nc(NC(C)C)n1
3. C#CCN1C(=O)COc2cc(F)c(N3C(=O)C4=C(CCCC4)C3=O)cc21
4. CC1(C)[C@H](/C=C(\Cl)C(F)(F)F)[C@@H]1C(=O)OC(C#N)c1cccc(Oc2ccccc2)c1 (stereo partly drawn)
5. COP(=S)(OC)Oc1nc(Cl)c(Cl)cc1Cl
6. OC(Cc1ccccc1Cl)(Cn1nc[nH]c1=S)C1(Cl)CC1 (stereo not drawn)
7. CNC(=O)Oc1cccc(/N=C/N(C)C)c1
8. O=C1C2CC=CCC2C(=O)N1SC(Cl)(Cl)Cl (stereo not drawn)

[0.917, 1.05, 0.951, 0.998, 0.867, 1.01, 0.984, 0.671]

Need relative growth for each of these molecules.
1. CCN(CC)c1nc(C)cc(OP(=S)(OC)OC)n1
2. OC(Cn1cncn1)(c1ccc(F)cc1)c1ccccc1F (stereo not drawn)
3. COc1cc(OC)nc(NC(=O)NS(=O)(=O)c2ncccc2C(=O)N(C)C)n1
4. C[N+]1(C)CCCCC1
5. CS(=O)(=O)NC(=O)c1cc(Oc2ccc(C(F)(F)F)cc2Cl)ccc1[N+](=O)[O-]
6. COP(=S)(OC)SCN1C(=O)c2ccccc2C1=O

1: 1.01; 2: 1.08; 3: 1.08; 4: 1.09; 5: 1.02; 6: 1.02

Need relative growth for each of these molecules.
1. ClC1C(Cl)C(Cl)C(Cl)C(Cl)C1Cl (stereo not drawn)
2. CCC(CC)Nc1c([N+](=O)[O-])cc(C)c(C)c1[N+](=O)[O-]

1. 0.976
2. 0.88

----------
system: Community 9; assay: relative growth (AUC of 72 h growth curve relative to DMSO control, dAUC) (ratio); higher = more growth (less inhibition), active = hit call of the paper; conditions: 20 µM
OUTCOME MEASURE: relative growth
Answers are plain numbers.

Record excerpt, results attached:
{"MOLECULE": "COc1cc(OC)nc(NC(=O)NS(=O)(=O)c2ncccc2C(=O)N(C)C)n1", "OUTCOME MEASURE": "relative growth", "TEST RESULT": 1.08}
{"MOLECULE": "CCCCC(C#N)(Cn1cncn1)c1ccc(Cl)cc1 (stereo not drawn)", "OUTCOME MEASURE": "relative growth", "TEST RESULT": 0.937}

Turning to the following molecule.
For this molecule ( "CC[C@H]1CCC[C@H](O[C@H]2CC[C@H](N(C)C)[C@@H](C)O2)[C@@H](C)C(=O)C2=C[C@@H]3[C@@H](C=C(C)[C@@H]4C[C@@H](O[C@@H]5O[C@@H](C)[C@H](OC)[C@@H](OC)[C@H]5OC)C[C@@H]34)[C@@H]2CC(=O)O1.CC[C@H]1CCC[C@H](O[C@H]2CC[C@H](N(C)C)[C@@H](C)O2)[C@@H](C)C(=O)C2=C[C@H]3[C@@H]4C[C@H](O[C@@H]5O[C@@H](C)[C@H](OC)[C@@H](OC)[C@H]5OC)C[C@H]4C=C[C@H]3C2CC(=O)O1" ), measured relative growth is 0.711

----------
test system: Arthrobacter 1 (Arthrobacter humicola); assay: relative growth (AUC of 72 h growth curve relative to DMSO control, dAUC) (ratio); higher = more growth (less inhibition), active = hit call of the paper; details: 20 µM
OUTCOME MEASURE: relative growth
Answers are plain numbers.

{"MOLECULE": "COc1cccc(C(=O)NN(C(=O)c2cc(C)cc(C)c2)C(C)(C)C)c1C", "SYSTEM NAME": "Arthrobacter 1 (Arthrobacter humicola)", "relative growth": 0.98}
{"MOLECULE": "Cc1cccc2sc3nncn3c12", "SYSTEM NAME": "Arthrobacter 1 (Arthrobacter humicola)", "relative growth": 0.993}
{"MOLECULE": "CC(C)OC(=O)C(C(=O)OC(C)C)=C1SCCS1", "SYSTEM NAME": "Arthrobacter 1 (Arthrobacter humicola)", "relative growth": 1.02}

Turning to the following molecule.
For this molecule ( COP(=O)(NC(C)=O)SC (centres undefined) ), measured relative growth is 0.984

----------
Answer each item with its documented relative growth.
test system: Community 8; test: relative growth (AUC of 72 h growth curve relative to DMSO control, dAUC) (ratio); higher = more growth (less inhibition), active = hit call of the paper; details: 20 µM

Record excerpt, results attached:
{"MOLECULE": "CCC(CC)Nc1c([N+](=O)[O-])cc(C)c(C)c1[N+](=O)[O-]", "relative growth": "1.02 (inactive)"}
{"MOLECULE": "CCCC1COC(Cn2cncn2)(c2ccc(Cl)cc2Cl)O1 (stereo not given)", "relative growth": "1 (inactive)"}
{"MOLECULE": "COP(=O)(NC(C)=O)SC (stereo not given)", "relative growth": "0.99 (inactive)"}
{"MOLECULE": "COCc1cnc(C2=NC(C)(C(C)C)C(=O)N2)c(C(=O)O)c1 (stereo not given)", "relative growth": "0.983 (inactive)"}

Turning to the following molecule.
For this molecule ( "CC(C)N(C(=O)COc1nnc(C(F)(F)F)s1)c1ccc(F)cc1" ), measured relative growth is 1.02 (inactive)

----------
test system: Community 6; assay: relative growth (AUC of 72 h growth curve relative to DMSO control, dAUC) (ratio); higher = more growth (less inhibition), active = hit call of the paper; details: 20 µM
OUTCOME MEASURE: relative growth
Numbers only.

{"COMPOUND": "COC(=O)N(C(=O)N1CO[C@@]2(C(=O)OC)Cc3cc(Cl)ccc3C2=N1)c1ccc(OC(F)(F)F)cc1", "relative growth": 0.974}
{"COMPOUND": "O=C(Nc1ccc(F)cc1F)c1cccnc1Oc1cccc(C(F)(F)F)c1", "relative growth": 0.987}
{"COMPOUND": "C#CCOc1ccc(CCNC(=O)C(OCC#C)c2ccc(Cl)cc2)cc1OC (configuration not stated)", "relative growth": 1.02}

Need relative growth for each of these compounds.
1. CCNc1nc(Cl)nc(NC(C)C)n1
2. CCOc1ccc(C(C)(C)COCc2cccc(Oc3ccccc3)c2)cc1
3. Clc1ccc(C(c2ccc(Cl)cc2)C(Cl)(Cl)Cl)cc1
4. CCSC(C)CC1CC(=O)C(/C(CC)=N/OC/C=C/Cl)=C(O)C1 (mixture of isomers)

[1.01, 0.979, 0.983, 1.01]

Need relative growth for each of these compounds.
1. Nc1c(Cl)c(F)nc(OCC(=O)O)c1Cl
2. CC(C1CC1)C(O)(Cn1cncn1)c1ccc(Cl)cc1 (configuration not stated)
3. O=C(Nc1ccccc1-c1ccc(Cl)cc1)c1cccnc1Cl
4. CCN(CC)c1nc(C)cc(OP(=S)(OC)OC)n1
5. O=C(O)c1nc(Cl)ccc1Cl

1: 1.01; 2: 1.02; 3: 1.01; 4: 0.982; 5: 0.972
